Data provenance is patent US20230330254A1.

# Test: Liver microsome stability
# Format: in vitro ADME, human
# Condition parameters: human, liver microsomes; Table 5C; read-out: Human Liver microsome T1/2
Measured quantity: half-life

Please indicate half-life recorded for CCc1cc(OCCCCn2cc(COCCOCCOCCOCCOCCOCCOCCOCCN)nn2)ccc1-c1ccc(C[C@H](NC(=O)[C@H](CC(=O)O)NC(=O)[C@H](CO)NC(=O)[C@@H](NC(=O)C(C)(Cc2ccccc2F)NC(=O)[C@@H](NC(=O)CNC(=O)[C@H](Cc2nn[nH]n2)NC(=O)C(C)(C)C(=O)NCCc2cnc[nH]2)[C@@H](C)O)[C@@H](C)O)C(=O)N[C@@H](CCCc2cc(C)cc(C)c2)C(N)=O)cc1 (stereo partly shown)
> 2.42 h

====

# Test: Plasma stability of payloads and linker-payloads, human plasma
# Type: in vitro ADME
# Condition parameters: plasma, pH 7.4, tested time A (1 day per footnote), 2 μM, 37° C., read-out: Human plasma stability assay T½ (converted)
Where a SMILES comes first, the peptide text is derived from it. [ ]: non-standard residue; d: D form. The star is where a group is joined. Bip(2'-Et,4'-O(CH2)4NH2) = CCc1cc(OCCCCN)ccc1-c1ccc(C[C@H](N)C(=O)O)cc1; Nva(5-(3,5-Me2Ph)) = Cc1cc(C)cc(CCC[C@H](N)C(=O)O)c1; Ala(1H-tetrazol-5-yl) = N[C@@H](Cc1nnn[nH]1)C(=O)O; αMePhe(2-F) = C[C@](N)(Cc1ccccc1F)C(=O)O; X4 = CC(C)(C(=O)O)C(=O)*
Measured quantity: half-life at 2 µM

Please indicate half-life at 2 µM recorded for CCc1cc(OCCCCN)ccc1-c1ccc(C[C@H](NC(=O)[C@H](CC(=O)O)NC(=O)[C@H](CO)NC(=O)[C@@H](NC(=O)[C@](C)(Cc2ccccc2F)NC(=O)[C@@H](NC(=O)CNC(=O)[C@H](Cc2nn[nH]n2)NC(=O)C(C)(C)C(=O)O)[C@@H](C)O)[C@@H](C)O)C(=O)N[C@@H](CCCc2cc(C)cc(C)c2)C(N)=O)cc1 [P3] (X4-[Ala(1H-tetrazol-5-yl)]GT[αMePhe(2-F)]TSD[Bip(2'-Et,4'-O(CH2)4NH2)][Nva(5-(3,5-Me2Ph))]-NH2)
> 57.8 h

====

# Target system: human GLP1R (Homo sapiens, UniProt P43220)
# Sequence (P43220 24-463): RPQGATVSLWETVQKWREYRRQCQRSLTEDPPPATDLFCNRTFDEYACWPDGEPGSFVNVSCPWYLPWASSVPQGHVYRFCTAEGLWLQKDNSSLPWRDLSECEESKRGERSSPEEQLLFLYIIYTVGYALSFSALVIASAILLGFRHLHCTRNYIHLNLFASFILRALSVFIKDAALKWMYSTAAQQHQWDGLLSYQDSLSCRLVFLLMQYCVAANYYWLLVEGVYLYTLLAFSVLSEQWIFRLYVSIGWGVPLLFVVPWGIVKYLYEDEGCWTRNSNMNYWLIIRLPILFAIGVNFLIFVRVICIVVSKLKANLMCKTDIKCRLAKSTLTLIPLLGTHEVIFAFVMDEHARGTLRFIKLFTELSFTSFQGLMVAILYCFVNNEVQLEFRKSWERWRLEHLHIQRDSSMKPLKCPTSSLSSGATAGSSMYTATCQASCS
# Test: Human GLP1R cAMP accumulation assay
# Type: cell-based
# Design: HEK293 cells over-expressing full length human GLP-1R were utilized; expressed in transfected cells; host or cells: HEK293 (HEK293/hGLP1R)
# Condition parameters: HEK293/hGLP1R cells; Table 4; read-out: cAMP EC50
Where a SMILES comes first, the peptide text is derived from it. [ ]: non-standard residue; d: D form. The star is where a group is joined. Bip(2'-Et,4'-O(CH2)4N3) = CCc1cc(OCCCCN=[N+]=[N-])ccc1-c1ccc(C[C@H](N)C(=O)O)cc1; Bip(2'-Et,4'-O(CH2)4NH2) = CCc1cc(OCCCCN)ccc1-c1ccc(C[C@H](N)C(=O)O)cc1; Malonyl(2,2-Me2,histaminyl) = CC(C)(C(=O)NCCc1cnc[nH]1)C(=O)*; Nva(5-(3,5-Me2Ph)) = Cc1cc(C)cc(CCC[C@H](N)C(=O)O)c1; Ala(1H-tetrazol-5-yl) = N[C@@H](Cc1nnn[nH]1)C(=O)O; αMePhe(2-F) = C[C@](N)(Cc1ccccc1F)C(=O)O; Desaminohistidyl = O=C(CCc1c[nH]cn1)*; X9 = O=C([C@@H]1CCN(CCc2cnc[nH]2)C1)*; X1 = O=C(CCCCCc1cnc[nH]1)*
Measured quantity: EC50 (nM)
One number for each entry, in nM.

# annotated cases, reported EC50 shown
CCc1cc(OCCCCN)ccc1-c1ccc(C[C@H](NC(=O)[C@H](CC(=O)O)NC(=O)[C@H](CO)NC(=O)[C@@H](NC(=O)[C@](C)(Cc2ccccc2F)NC(=O)[C@@H](NC(=O)CNC(=O)[C@H](Cc2nn[nH]n2)NC(=O)CNC(=O)CCc2c[nH]cn2)[C@@H](C)O)[C@@H](C)O)C(=O)N[C@@H](CCCc2cc(C)cc(C)c2)C(N)=O)cc1 [P12] (Desaminohistidyl-G[Ala(1H-tetrazol-5-yl)]GT[αMePhe(2-F)]TSD[Bip(2'-Et,4'-O(CH2)4NH2)][Nva(5-(3,5-Me2Ph))]-NH2) = 0.039
CCc1cc(OCCCCN)ccc1-c1ccc(C[C@H](NC(=O)[C@H](CC(=O)O)NC(=O)[C@H](CO)NC(=O)[C@@H](NC(=O)[C@](C)(Cc2ccccc2F)NC(=O)[C@@H](NC(=O)CNC(=O)[C@H](Cc2nn[nH]n2)NC(=O)C(C)(C)C(=O)NCCc2cnc[nH]2)[C@@H](C)O)[C@@H](C)O)C(=O)N[C@@H](CCCc2cc(C)cc(C)c2)C(N)=O)cc1 [P9] ({Malonyl(2,2-Me2,histaminyl)}-[Ala(1H-tetrazol-5-yl)]GT[αMePhe(2-F)]TSD[Bip(2'-Et,4'-O(CH2)4NH2)][Nva(5-(3,5-Me2Ph))]-NH2) = 0.05
CCc1cc(OCCCCN)ccc1-c1ccc(C[C@H](NC(=O)[C@H](CC(=O)O)NC(=O)[C@H](CO)NC(=O)[C@@H](NC(=O)[C@](C)(Cc2ccccc2F)NC(=O)[C@@H](NC(=O)CNC(=O)[C@H](Cc2nn[nH]n2)NC(=O)[C@@H]2CCN(CCc3cnc[nH]3)C2)[C@@H](C)O)[C@@H](C)O)C(=O)N[C@@H](CCCc2cc(C)cc(C)c2)C(N)=O)cc1 [P17-R] (X9-[Ala(1H-tetrazol-5-yl)]GT[αMePhe(2-F)]TSD[Bip(2'-Et,4'-O(CH2)4NH2)][Nva(5-(3,5-Me2Ph))]-NH2) = 11.2
CCc1cc(OCCCCNC(=O)[C@H](CO)NC(=O)CNC(=O)CNC(=O)CNC(=O)CNC(=O)CCC(=O)N2Cc3ccccc3C#Cc3ccccc32)ccc1-c1ccc(C[C@H](NC(=O)[C@H](CC(=O)O)NC(=O)[C@H](CO)NC(=O)[C@@H](NC(=O)[C@](C)(Cc2ccccc2F)NC(=O)[C@@H](NC(=O)CNC(=O)[C@H](Cc2nn[nH]n2)NC(=O)C(C)(C)C(=O)NCCc2cnc[nH]2)[C@@H](C)O)[C@@H](C)O)C(=O)N[C@@H](CCCc2cc(C)cc(C)c2)C(=O)Nc2ccccc2)cc1 [LP15, DIBAC- suc-G4S- P23] = 0.649
CCc1cc(OCCCCN=[N+]=[N-])ccc1-c1ccc(C[C@H](NC(=O)[C@H](CC(=O)O)NC(=O)[C@H](CO)NC(=O)[C@@H](NC(=O)[C@](C)(Cc2ccccc2F)NC(=O)[C@@H](NC(=O)CNC(=O)[C@H](Cc2nn[nH]n2)NC(=O)C(C)(C)C(=O)NCCc2cnc[nH]2)[C@@H](C)O)[C@@H](C)O)C(=O)N[C@@H](CCCc2cc(C)cc(C)c2)C(N)=O)cc1 [P8] ({Malonyl(2,2-Me2,histaminyl)}-[Ala(1H-tetrazol-5-yl)]GT[αMePhe(2-F)]TSD[Bip(2'-Et,4'-O(CH2)4N3)][Nva(5-(3,5-Me2Ph))]-NH2) = 0.497
CCc1cc(OCCCCNC(=O)[C@@H](CO)NC(=O)CNC(=O)CNC(=O)CNC(=O)CNC(=O)COC2C#CCCCCC2)ccc1-c1ccc(C[C@H](NC(=O)[C@H](CC(=O)O)NC(=O)[C@H](CO)NC(=O)[C@@H](NC(=O)C(C)(Cc2ccccc2F)NC(=O)[C@@H](NC(=O)CNC(=O)[C@H](Cc2nn[nH]n2)NC(=O)C(C)(C)C(=O)NCCc2cnc[nH]2)[C@@H](C)O)[C@@H](C)O)C(=O)N[C@@H](CCCc2cc(C)cc(C)c2)C(N)=O)cc1 (stereo partly drawn) [LP19, COT-G4-(R)Ser-P9] = 0.558

Record EC50 for all entries; do not skip any.
1. CCc1cc(OCCCCNC(=O)CNC(=O)CNC(=O)CNC(=O)CNC(=O)[C@H](CO[C@@H]2OC(CO)[C@@H](O)C(O)C2O)NC(=O)CCC(=O)N2Cc3ccccc3C#Cc3ccccc32)ccc1-c1ccc(C[C@H](NC(=O)[C@H](CC(=O)O)NC(=O)[C@H](CO)NC(=O)[C@@H](NC(=O)[C@](C)(Cc2ccccc2F)NC(=O)[C@@H](NC(=O)CNC(=O)[C@H](Cc2nn[nH]n2)NC(=O)C(C)(C)C(=O)NCCc2cnc[nH]2)[C@@H](C)O)[C@@H](C)O)C(=O)N[C@@H](CCCc2cc(C)cc(C)c2)C(N)=O)cc1 (some centres unmarked) [LP20, DIBAC-suc-(glucose) SG4-P9]
2. CCc1cc(OCCCCN)ccc1-c1ccc(C[C@H](NC(=O)[C@H](CC(=O)O)NC(=O)[C@H](CO)NC(=O)[C@@H](NC(=O)[C@](C)(Cc2ccccc2F)NC(=O)[C@@H](NC(=O)CNC(=O)[C@H](Cc2nn[nH]n2)NC(=O)CCCCCc2cnc[nH]2)[C@@H](C)O)[C@@H](C)O)C(=O)N[C@@H](CCCc2cc(C)cc(C)c2)C(N)=O)cc1 [P11] (X1-[Ala(1H-tetrazol-5-yl)]GT[αMePhe(2-F)]TSD[Bip(2'-Et,4'-O(CH2)4NH2)][Nva(5-(3,5-Me2Ph))]-NH2)

0.314
1.03
